Documented pIC50 across a set of compounds
TARGET SYSTEM: Bifunctional protein GlmU (Escherichia coli, UniProt C3SLB7)
Sequence (C3SLB7 whole entry): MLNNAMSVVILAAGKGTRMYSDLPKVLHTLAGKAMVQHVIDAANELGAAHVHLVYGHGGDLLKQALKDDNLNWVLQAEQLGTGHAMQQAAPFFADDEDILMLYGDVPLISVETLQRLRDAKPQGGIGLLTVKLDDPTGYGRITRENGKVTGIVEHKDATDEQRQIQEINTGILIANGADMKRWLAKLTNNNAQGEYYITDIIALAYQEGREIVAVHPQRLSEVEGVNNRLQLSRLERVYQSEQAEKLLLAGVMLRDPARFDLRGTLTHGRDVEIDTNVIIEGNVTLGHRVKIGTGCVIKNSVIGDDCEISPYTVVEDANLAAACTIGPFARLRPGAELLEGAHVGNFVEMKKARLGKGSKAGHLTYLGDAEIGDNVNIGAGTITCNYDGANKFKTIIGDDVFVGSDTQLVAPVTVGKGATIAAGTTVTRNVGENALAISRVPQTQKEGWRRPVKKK
ASSAY EXPLANATION: Inhibition of Escherichia coli ATCC 27325 GlmU expressed in Escherichia coli HMS174(DE3) incubated for 15 mins prior to MgCl2 addition measured after 30 mins by malachite green staining-based assay
pIC50: −log10 of the molar value.

# SMILES INPUT, TARGET SYSTEM, pIC50
rows = [
    ("COc1cc(C(=O)Nc2ccc(NC(=O)c3ccccc3)cc2)ccc1OCC(=O)O", "Bifunctional protein GlmU (Escherichia coli, UniProt C3SLB7)", "< 4.17"),
]

Query string: Tell me measured pIC50 for COc1cc(C(=O)Nc2ccc(NC(=O)c3ccccc3)cc2)ccc1OCC(N)=O please.
Result string: < 4.66

Query string: Tell me measured pIC50 for COc1cc(C(=O)Nc2ccc(NC(=O)c3ccccn3)cc2)cc(-c2nc(=O)o[nH]2)c1 please.
Result string: < 4.66

Query string: Tell me measured pIC50 for COc1cc2c(Nc3ccc(NC(=O)c4ccccc4)cc3)ncnc2cc1OCC(N)=O please.
Result string: < 4.66

Query string: Tell me measured pIC50 for COc1ccc(C(=O)Nc2ccc(NC(=O)c3ccccn3)cc2)cc1-c1c[nH]c(=O)[nH]c1=O please.
Result string: < 4.66
